# Assay summary: Half life in cannulated Sprague-Dawley rat at 0.2 to 0.25 mg/kg, iv administered as cassette dose by LC-MS/MS analysis
# Assay type: ADME, organism-based
# Particulars: in vivo
Outcome measure: half-life (h)
Numeric only. Scale: h

Consider the compound shown here: COc1ccc(C(=O)Nc2cc(OC(F)(F)F)ccc2-n2cncn2)cc1OC What is its recorded half-life? 1.73

###

# Study target: UniProtKB Q14416
# Sequence (Q14416 whole entry): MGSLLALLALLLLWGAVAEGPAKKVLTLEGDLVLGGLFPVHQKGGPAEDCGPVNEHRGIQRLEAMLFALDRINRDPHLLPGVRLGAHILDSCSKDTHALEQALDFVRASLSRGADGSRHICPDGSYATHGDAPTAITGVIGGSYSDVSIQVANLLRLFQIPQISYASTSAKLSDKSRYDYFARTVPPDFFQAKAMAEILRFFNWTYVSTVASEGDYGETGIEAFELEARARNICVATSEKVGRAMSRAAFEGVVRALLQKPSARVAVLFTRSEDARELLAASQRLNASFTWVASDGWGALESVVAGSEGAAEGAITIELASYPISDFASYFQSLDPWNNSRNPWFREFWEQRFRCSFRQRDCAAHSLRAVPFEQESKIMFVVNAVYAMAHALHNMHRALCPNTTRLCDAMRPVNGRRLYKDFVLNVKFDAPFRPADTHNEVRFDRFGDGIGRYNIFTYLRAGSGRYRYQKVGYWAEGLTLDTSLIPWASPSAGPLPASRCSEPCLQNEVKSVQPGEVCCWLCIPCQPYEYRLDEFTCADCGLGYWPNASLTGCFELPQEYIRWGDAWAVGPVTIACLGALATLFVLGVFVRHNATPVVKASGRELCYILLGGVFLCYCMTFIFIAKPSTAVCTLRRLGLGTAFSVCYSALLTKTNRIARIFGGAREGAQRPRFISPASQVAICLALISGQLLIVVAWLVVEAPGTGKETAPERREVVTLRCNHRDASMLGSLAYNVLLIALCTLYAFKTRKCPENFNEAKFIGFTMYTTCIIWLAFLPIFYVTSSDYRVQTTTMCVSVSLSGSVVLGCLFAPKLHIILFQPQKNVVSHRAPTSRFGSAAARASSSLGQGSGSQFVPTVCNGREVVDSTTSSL
# Assay summary: Agonist activity at mGlu2 receptor (unknown origin)
Outcome measure: EC50

I'm curious: which EC50 was measured for COc1ccc(C(=O)Nc2cc(OC(F)(F)F)ccc2-n2cncn2)cc1OC tested on UniProtKB Q14416? > 10 µM
